- System: Campylobacter sp.
- experimental details: Antibacterial activity against Campylobacter sp. assessed as resistance breakpoint by CLSI method
- Format: functional
Listing: Activity of selected molecules
Give just the numeric value; µg/mL need not be written.

query smiles	reading unit	Activity
CC[C@H]1OC(=O)[C@H](C)[C@@H](O[C@H]2C[C@@](C)(OC)[C@@H](O)[C@H](C)O2)[C@H](C)[C@@H](O[C@@H]2O[C@H](C)C[C@H](N(C)C)[C@H]2O)[C@](C)(O)C[C@@H](C)C(=O)[C@H](C)[C@@H](O)[C@]1(C)O	µg/mL	16
CC1(C)S[C@@H]2[C@H](NC(=O)[C@H](N)c3ccccc3)C(=O)N2[C@H]1C(=O)O	µg/mL	32
CCC[C@@H]1C[C@@H](C(=O)N[C@@H]([C@H]2O[C@H](SC)[C@H](O)[C@@H](O)[C@H]2O)[C@H](C)Cl)N(C)C1	µg/mL	8

stdin: Return Activity for the following molecule: `CN(C)[C@@H]1C(O)=C(C(N)=O)C(=O)[C@@]2(O)C(O)=C3C(=O)c4c(O)cccc4[C@@](C)(O)[C@H]3C[C@@H]12`
stdout: 16

stdin: Return Activity for the following molecule: `CCn1cc(C(=O)O)c(=O)c2cc(F)c(N3CCNCC3)cc21`
stdout: 16

stdin: Return Activity for the following molecule: `C[C@@H](O)[C@H]1C(=O)N2C(C(=O)O)=C(S[C@@H]3CN[C@H](C(=O)N(C)C)C3)[C@H](C)[C@H]12`
stdout: 16

stdin: Return Activity for the following molecule: `C[C@H]1COc2c(N3CCN(C)CC3)c(F)cc3c(=O)c(C(=O)O)cn1c23.C[C@H]1COc2c(N3CCN(C)CC3)c(F)cc3c(=O)c(C(=O)O)cn1c23.O`
stdout: 8
